# experimentalTarget: T1, biotinylated CRH (human and mouse, not fully specified; biotinylated, position not stated)
# T1 construct: also called Biotin-CRH; biotin-labeled CRH
# T1 peptide: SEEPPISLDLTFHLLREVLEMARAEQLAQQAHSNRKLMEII
# protocolSummary: Octet BLI, biotinylated CRH on SA sensor
experimentalEndpoint: koff

PR302334-8 (antibody, human IgG1, kappa, V domains shown, Humanized variant of PR302334) VH: EVQLVESGGGLVQPGGSLRLSCAASGFTFSTYAMSWVRQAPGKGLEWVASIRSGGTTYYPDSVKGRFTISRDNSKNTLYLQMNSLRAEDTAVYYCTRGIDWGQGTTVTVSS VL: EIVMTQSPATLSVSPGERATLSCKASQSVNNDVAWYQQKPGQAPRLLIYYASNRYTGIPARFSGSGSGTEFTLTISSLQSEDLAVYFCQQDYSSWTFGGGTKVEIKR; < 1e-07 s⁻¹
PR302341-55 (antibody, human IgG1, kappa, V domains shown, Humanized, PTM-removed variant of PR302341) VH: QVQLVQSGAEVKKPGASVKVSCKASGYTFTDYFMKWVRQAPGQRLEWMGVINPNNADIFYNQKFKGRVTITRDTSASTAYMELSSLRSEDTAVYYCARGTDRALFAYWGQGTLVTVSS VL: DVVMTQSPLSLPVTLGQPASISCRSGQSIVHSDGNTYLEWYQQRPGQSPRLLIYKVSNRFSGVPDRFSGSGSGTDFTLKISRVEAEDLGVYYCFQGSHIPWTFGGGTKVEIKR; < 1e-07 s⁻¹

Task: Would you mind telling me what koff value was observed for PR302334 (antibody, human IgG1, kappa, V domains shown, Series 9; mouse variable domains with human IgG1 wildtype Fc) VH: EVKLVESGGGLVKPGGSLKLSCAASGFTFSTYAMSWVRQTPEKRLEWVASIRSGGTTYYPDSVKGRFTISRDNARNILYLQMSSLRSEDTAIYYCTRGIDWGQGTLVTVSA VL: NIVMTQTPKFLLVSAGDRITITCKASQSVNNDVAWYQQKPGQSPKLLIYYASNRYTGVPDRFTGSGYGTDFTFTISTVQAEDLAVYFCQQDYSSWTFGGGTNLEIKR ?
Output: < 1e-07 s⁻¹
